# assay.system: Myeloblastin (Homo sapiens, UniProt P24158)
# Sequence (P24158 whole entry): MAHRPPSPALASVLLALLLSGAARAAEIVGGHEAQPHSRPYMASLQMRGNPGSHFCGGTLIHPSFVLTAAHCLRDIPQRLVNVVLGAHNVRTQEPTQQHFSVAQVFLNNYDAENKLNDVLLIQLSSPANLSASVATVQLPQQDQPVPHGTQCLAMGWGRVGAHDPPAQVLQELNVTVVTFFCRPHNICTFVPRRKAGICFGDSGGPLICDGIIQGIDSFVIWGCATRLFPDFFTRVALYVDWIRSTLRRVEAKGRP
// values below are reported IC50

Below are worked cases with known answers.
> print(dat)
                                 cpd.smiles                              assay.system  assay.result
1  CC(C)(C)C(=O)Oc1ccc(S(=O)(=O)Nc2ccccc2C(=O)NCC(=O)O)cc1  Myeloblastin (Homo sapiens, UniProt P24158)       0.34 µM
2  COC(=O)c1ccccc1NS(=O)(=O)c1ccc(NC(=O)C(C)(C)C)cc1  Myeloblastin (Homo sapiens, UniProt P24158)       > 10 µM
3  CCOC(=O)c1ccccc1NC(=O)c1ccc(OC(=O)C(C)(C)C(F)(F)F)cc1  Myeloblastin (Homo sapiens, UniProt P24158)       > 10 µM

Query compound follows.
Reported IC50 ( "CCCOC(=O)c1ccccc1NC(=O)c1ccc(OC(=O)C(C)(C)C(F)(F)F)cc1" ) = > 10 µM

----------
# assay.system: Neutrophil elastase (Mus musculus, UniProt Q3UP87)
# Sequence (Q3UP87 whole entry): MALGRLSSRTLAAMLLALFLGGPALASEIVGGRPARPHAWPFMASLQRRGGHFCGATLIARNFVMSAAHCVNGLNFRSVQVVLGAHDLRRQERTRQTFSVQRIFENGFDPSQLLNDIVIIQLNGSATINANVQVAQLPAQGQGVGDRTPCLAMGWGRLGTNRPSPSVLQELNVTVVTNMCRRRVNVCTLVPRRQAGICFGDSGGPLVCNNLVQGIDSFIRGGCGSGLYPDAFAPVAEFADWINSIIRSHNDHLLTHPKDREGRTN
# protocol.details: Inhibition of recombinant mouse neutrophil elastase using methoxysuccinyl-Ala-Ala-Pro-Val-pnitroanilide as substrate preincubated for 15 mins before substrate addition measured after 90 mins by spectrophotometry
property.measured: IC50 (nM)

> print(dat)
                                 cpd.smiles                              assay.system  assay.result
1  C/C(=N/O)c1ccccc1NS(=O)(=O)c1ccc(OC(=O)C(C)(C)C)cc1  Neutrophil elastase (Mus musculus, UniProt Q3UP87)           191
2  CC(C)(C)C(=O)Oc1ccc(S(=O)(=O)Nc2ccccc2C(=O)NCC(=O)O)cc1  Neutrophil elastase (Mus musculus, UniProt Q3UP87)           145

----------
# assay.system: Neutrophil elastase (Homo sapiens)
# protocol.details: Inhibition of human neutrophil elastase measured for 30 mins by spectrophotometry
property.measured: IC50 (nM)

> print(dat)
                                 cpd.smiles  unit.info  assay.result
1  CCCCC(=O)c1ccccc1NS(=O)(=O)c1ccc(OC(=O)C(C)(C)C)cc1         nM          2240
2  CC(=O)c1ccccc1NS(=O)(=O)c1ccc(OC(=O)C(C)(C)C)cc1         nM           110
3  CC(C)(C)C(=O)Oc1ccc(S(=O)(=O)Nc2ccccc2C=O)cc1         nM           120

A = CCCOC(=O)c1ccccc1NC(=O)c1ccc(OC(=O)C(C)(C)C)cc1
B = CC(C)(C)C(=O)Oc1ccc(S(=O)(=O)Nc2ccccc2C(=O)OCCO)cc1
C = CCOC(=O)c1ccccc1NC(=O)c1ccc(OC(=O)C(C)(C)C)cc1
(Q) Arrange these compounds by their IC50, starting with the largest number. The labels, placed in the requested order, form the answer.
(A) A, C, B

a = CCC(=O)c1ccccc1NS(=O)(=O)c1ccc(OC(=O)C(C)(C)C)cc1
b = CC(C)(C)C(=O)Oc1ccc(S(=O)(=O)Nc2ccccc2C(=O)NCCO)cc1
c = CCCC(=O)c1ccccc1NS(=O)(=O)c1ccc(OC(=O)C(C)(C)C)cc1
d = COC(=O)c1ccccc1NC(=O)c1ccc(OC(=O)C(C)(C)C)cc1
(Q) Rank items: key IC50, increasing. Show the ranking through the labels, in the order asked for.
(A) b, a, c, d

----------
Catalogue of molecules with associated IC50
# assay.system: Neutrophil elastase (Homo sapiens, UniProt P08246)
# Sequence (P08246 whole entry): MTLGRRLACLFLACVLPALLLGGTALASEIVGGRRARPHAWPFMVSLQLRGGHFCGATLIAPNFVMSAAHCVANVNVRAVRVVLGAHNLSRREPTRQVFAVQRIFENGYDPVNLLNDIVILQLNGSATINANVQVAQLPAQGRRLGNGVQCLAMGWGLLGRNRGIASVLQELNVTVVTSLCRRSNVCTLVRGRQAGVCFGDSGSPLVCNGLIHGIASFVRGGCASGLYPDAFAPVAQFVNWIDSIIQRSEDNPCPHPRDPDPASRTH
# protocol.details: Inhibition of human neutrophil elastase measured for 30 mins by spectrophotometry

> print(dat)
                                   molecule  assay.result
1  COC(=O)c1ccccc1NC(=O)c1ccc(OC(=O)C(C)(C)C(F)(F)F)cc1       > 10 µM

// IC50 lookup, molecule = "CCOC(=O)c1ccccc1NC(=O)c1ccc(OC(=O)C(C)(C)C(F)(F)F)cc1" , result: > 10 µM

Short answer for CC(C)(C)[S+]([O-])Nc1ccc(S(=O)(=O)Nc2ccccc2C=O)cc1 (stereo not given) : IC50 was > 10 µM

Value of measured IC50 for the entry "CCCOC(=O)c1ccccc1NC(=O)c1ccc(OC(=O)C(C)(C)C(F)(F)F)cc1" : > 10 µM

// field: IC50; key: "COC(=O)c1ccccc1NS(=O)(=O)c1ccc(NC(=O)C(C)(C)C)cc1" ; value = > 10 µM
